systemTested: M1 muscarinic receptor (Homo sapiens, UniProt P11229)
Construct: expressed in transfected cells; host or cells: CHO (M1-CHO)
assayNotes: Functional mobilization of intracellular calcium (FLIPR) in M1-CHO cells
Type: cell-based
conditionLabel: Table 4; 100% efficacy is the maximum response obtained with the Carbachol control
Reported Emax values follow for various compounds
property: Emax

CCOC(=O)N1CCC(CN2CCC3(CC2)CN(C(C)=O)c2c(C(F)(F)F)cccc23)CC1 = 25 to 100%
CCOC(=O)N1CCC(N2CCC3(CC2)CN(c2cccc(OC)c2)c2ccc(F)cc23)CC1 = 25 to 100%
CCOC(=O)N1CCC(N2CCC3(CC2)CN(c2ccc(OC)nn2)c2ccc(F)cc23)CC1 = 25 to 100%
CC(=O)N1CC2(CCN(C3CC4CCC(C3)N4C(=O)O[C@@H]3CCOC3)CC2)c2ccccc21 (stereo partly shown) = 25 to 100%
CCc1cncc(N2CCC(N3CCC4(CC3)CN(C(C)=O)c3ccccc34)CC2)n1 = 25 to 100%
COc1cc2c(cc1OC)C1(CCN(CC3CCCCC3)CC1)C[C@@H]2N(C(C)=O)[C@@H](C)c1ccccc1 = < 25%
CCOC(=O)N1CCC(N2CCC3(CC2)CN(C(=O)C(=O)CC)c2ccc(F)cc23)CC1 = > 100%

----------
systemTested: M1 muscarinic receptor (Homo sapiens, UniProt P11229)
Construct: expressed in transfected cells; host or cells: CHO (M1-CHO)
Sequence (P11229 1-460): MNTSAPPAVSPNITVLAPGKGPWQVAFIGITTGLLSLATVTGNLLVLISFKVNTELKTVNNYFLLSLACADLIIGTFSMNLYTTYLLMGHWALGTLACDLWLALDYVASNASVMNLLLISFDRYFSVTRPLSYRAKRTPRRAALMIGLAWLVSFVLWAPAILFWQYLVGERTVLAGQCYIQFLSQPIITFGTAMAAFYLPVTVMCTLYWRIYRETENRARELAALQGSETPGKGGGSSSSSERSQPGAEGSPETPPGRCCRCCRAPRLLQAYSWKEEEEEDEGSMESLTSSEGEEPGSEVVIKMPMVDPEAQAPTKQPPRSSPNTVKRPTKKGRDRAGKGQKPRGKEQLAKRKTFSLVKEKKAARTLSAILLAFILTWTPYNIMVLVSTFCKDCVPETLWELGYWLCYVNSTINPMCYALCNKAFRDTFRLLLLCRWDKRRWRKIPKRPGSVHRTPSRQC
assayNotes: Functional mobilization of intracellular calcium (FLIPR) in M1-CHO cells
Format: cell-based
conditionLabel: M1-CHO cells, calcium mobilization (FLIPR)
Reported EC50 values follow for various molecules
property: EC50

Fc1ccc2c(c1)C1(CCN(C3CC4CCC(C4)C3)CC1)CN2 (stereo not shown) = < 100 nM
CC(=O)N1CC2(CCN(C3CCN(C(=O)O[C@H]4CCOC4)CC3)CC2)c2cc(F)ccc21 = > 1000 nM
CC(=O)N1CC2(CCN(C3CCN(C(=O)OC(C)C)CC3)CC2)c2cc(C)ccc21 = < 100 nM
CCOC(=O)N1CCC(N2CCC3(CC2)CN(C(C)=O)c2c(F)cccc23)CC1 = < 100 nM

----------
Reported Emax values follow for various compounds
systemTested: M1 muscarinic receptor (Homo sapiens)
Construct: expressed in transfected cells; host or cells: CHO (M1-CHO)
assayNotes: Functional mobilization of intracellular calcium (FLIPR) in M1-CHO cells
Assay type: cell-based
conditionLabel: M1 receptor, calcium mobilization; read-out: M1 Efficacy
property: Emax

CC(=O)N1CC2(CCN(CC3CC4CCC3C4)CC2)c2cc(C)ccc21 (centres unmarked) = 65 to 85%
O=C(OCC(F)(F)F)N1C2CCC1CC(N1CCC3(CC1)COc1ccc(F)cc13)C2 (centres unmarked) = < 65%
CCOC(=O)N1CCC(N2CCC3(CC2)CN(C(=O)O[C@H]2CCOC2)c2ccc(F)cc23)CC1 = > 85%
CCCOC(=O)N1C2CCC1CC(N1CCC3(CC1)CN(C(=O)C1CCC1)c1ccc(F)cc13)C2 (centres unmarked) = < 65%
CC(=O)NC1CC2(CCN(C3CC4CCC(C4)C3)CC2)c2ccccc21 (centres unmarked) = < 65%
COCCOC(=O)N1C2CCC1CC(N1CCC3(CC1)C(=O)Nc1ccccc13)C2 (centres unmarked) = < 65%
CC(=O)N[C@H]1CC2(CCN(C3CCCCC3)CC2)c2ccccc21 = 65 to 85%
c1ccc2c(c1)NCC21CCN(C2CCC3CCC2C3)CC1 (centres unmarked) = 65 to 85%
CC(=O)N[C@H]1CC2(CCN(C3CCC(C)CC3)CC2)c2ccccc21 (some centres unmarked) = 65 to 85%
CCOC(=O)N1CCC(N2CCC3(CC2)CN(C(=O)C(C)C)c2ccc(F)cc23)CC1 = 65 to 85%
CCOC(=O)N[C@H]1CC2(CCN(C[C@H]3C[C@H]4CC[C@H]3C4)CC2)c2ccccc21 = < 65%
CCOC(=O)N1C2CCC1CC(N1CCC3(CC1)COc1ccc(Cl)cc13)C2 (centres unmarked) = < 65%
CCOC(=O)N1C2CCC1CC(N1CCC3(CC1)CN(C(=O)O[C@@H]1CCOC1)c1ccc(F)cc13)C2 (some centres unmarked) = > 85%
CS(=O)(=O)N1CC2(CCN(C3CC4CCC(C3)N4C(=O)OC3CCC3)CC2)c2cc(F)ccc21 (centres unmarked) = 65 to 85%
COCCOC(=O)N1CC2(CCN(C3CC4CCC(C3)N4C(=O)OCCOC)CC2)c2cc(F)ccc21 (centres unmarked) = 65 to 85%
CCOC(=O)N1C2CCC1CC(N1CCC3(CC1)CN(C(=O)Oc1ccc(F)cc1)c1ccc(F)cc13)C2 (centres unmarked) = < 65%
CCOC(=O)N1CCC(CN2CCC3(CC2)CN(C(C)=O)c2ccc(F)cc23)CC1 = 65 to 85%
